# credit: ChEMBL document CHEMBL1201862

Parameter 'readout' = GI50; parameter 'system' = HCT-15.

The examples below pair each entry with its known result.
[[record]]
compound = "CN1CC(S(=O)(=O)c2ccccc2)CC(S(=O)(=O)c2ccccc2)C1c1ccccc1 (stereo not given)"
targetundertest = "HCT-15"
readout = "GI50"
reported = "12.4 µM"

[[record]]
compound = "O=[N+]([O-])c1ccccc1CSc1nc(O)c2nc[nH]c2n1"
targetundertest = "HCT-15"
readout = "GI50"
reported = "> 100 µM"

[[record]]
compound = "O=c1oc2ccc3ccccc3c2cc1-c1nc2ccccc2o1"
targetundertest = "HCT-15"
readout = "GI50"
reported = "36.6 µM"

[[record]]
compound = "O=[N+]([O-])c1ccc2c(c1)OCCOCCOc1ccc([N+](=O)[O-])cc1OCCOCCO2"
targetundertest = "HCT-15"
readout = "GI50"
reported = "> 100 µM"

[[record]]
compound = "COc1ccc2[nH]c3c(O)nncc3c2c1"
targetundertest = "HCT-15"
readout = "GI50"
reported = "> 100 µM"

[[record]]
compound = "CC(=O)OC1CCCn2c1nc1c2C(=O)C(C)=C(N2CC2)C1=O (stereo not given)"
targetundertest = "HCT-15"
readout = "GI50"
reported = "0.207 µM"


Parameter requested: GI50. Apply to each item below.
1. O=C1c2ccccc2-c2cc3ccccc3c(=O)n21
2. Cc1c(Cl)ccc2c1NC(=O)C2(O)C1Cc2ccccc2C1=O (stereo not given)
3. CC[C@H](C)C(=O)O[C@H]1CCC=C2C=C[C@H](C)[C@H](CC[C@@H]3C[C@@H](O)CC(=O)O3)[C@H]21
4. CC(=O)OC/C=C\Cn1ncc(=O)[nH]c1=O
5. COc1cccc2c1C(=O)C1(O)CCCCC21 (stereo not given)
6. CN(C)CCCn1nc(N)c2nc3cc(Cl)ccc3nc21
7. COc1cc2oc3c(c(=O)c2c(O)c1/C=C/C(C)C)CCC(C)(C)Oc1cc(O)ccc1-3
8. O=S(=O)(O)c1ccc2cccc(/N=N\c3c(O)ccc4ccccc34)c2c1

**Result**
["> 100 µM", "> 100 µM", "4.06 µM", "19.2 µM", "> 100 µM", "48.9 µM", "10.2 µM", "> 100 µM"]

Parameter requested: GI50. Apply to each item below.
1. O=C(/C(=C/c1cccs1)c1ccccc1)c1ccccc1
2. Nc1cc(S(=O)(=O)O)cc2cc(S(=O)(=O)O)c(/N=N/c3ccc(-c4ccc(/N=N/c5c(S(=O)(=O)O)cc6cc(S(=O)(=O)O)cc(N)c6c5O)cc4)cc3)c(O)c12
3. O=C(CCCN1CCC2(CC1)C(=O)NC(=O)N2c1ccccc1)c1ccc(F)cc1
4. NC(=O)N1N=C2c3ccccc3SC[C@H]2[C@@H]1c1ccccc1
5. c1ccc2cc(CNCCCCNCCCNCc3ccc4ccccc4c3)ccc2c1
6. C[C@]12Cc3cnc(-c4ccccc4)nc3C[C@@H]1CC[C@@H]1[C@@H]2CC[C@@]2(C)[C@H]1CC[C@]2(C)O

**Result**
["> 100 µM", "> 100 µM", "> 100 µM", "23.9 µM", "0.824 µM", "9.44 µM"]

----------
System: SK-MEL-28
experimentDescription: NCI tumour cell line growth inhibition, 48 h
Active and inactive are the calls of the source. Cut-off read from the data, not from the text of the source: active = GI50 up to about 1.1 µM and inactive = higher.
readout: GI50

The examples below pair each entry with its known result.
[[record]]
molecule = "Cn1c2c(c3ccccc31)CCN(CCCN1CCN(c3cccc(Cl)c3)CC1)C2=O"
targetundertest = "SK-MEL-28"
readout = "GI50"
reported = "17.4 µM (inactive)"

[[record]]
molecule = "COc1ccc(OC)c(Cc2cnc3nc(N)nc(N)c3c2C)c1 [PIRITREXIM ISETHIONATE]"
targetundertest = "SK-MEL-28"
readout = "GI50"
reported = "1.25 µM (inactive)"


Parameter requested: GI50. Apply to each item below.
1. Clc1ccc(C2=NOC3C4CCC(C4)C23)cc1 (stereo unspecified)
2. Sc1nnc(COc2ccc(Cl)cc2)[nH]1
3. C1=CC2C=CC(C=C1)P2c1ccccc1 (stereo unspecified)

**Result**
> 100 µM (inactive)
> 100 µM (inactive)
> 100 µM (inactive)
